Cited source for all entries: patent US20250082656A1

- test: Pharmacokinetic study in SAD cohorts
- Format: in vivo, human
- condition-info: both sexes, human, plasma, po, 500 mg, human plasma, single oral Compound 2 500 mg, fed (high-fat/high-calorie meal); read-out: Cmax

compound: CNc1nc(N)nc2c1ncn2[C@@H]1O[C@H](CO[P@](=O)(N[C@@H](C)C(=O)OC(C)C)Oc2ccccc2)[C@@H](O)[C@@]1(C)F
Cmax, ng/mL: 488

====

- System: Huh-7 cells
- test: Cytotoxicity in uninfected Huh-7 cells
- condition-info: Table 1A, Huh-7 incubated without virus, parallel to the virus of the line; highest concentration tested

compound: CNc1nc(N)nc2c1ncn2[C@@H]1O[C@H](CO[P@](=O)(N[C@@H](C)C(=O)OC(C)C)Oc2ccccc2)[C@@H](O)[C@@]1(C)F [Compound 1]
CC50: > 170 µM

====

- test: Pharmacokinetic study in SAD cohorts
- Format: in vivo, human
- condition-info: both sexes, human, plasma, po, 1000 mg, human plasma, single oral Compound 2 1000 mg, fasting; read-out: Tmax
reported-property: Tmax (min)

compound: CNc1nc(N)nc2c1ncn2[C@@H]1O[C@H](CO[P@](=O)(N[C@@H](C)C(=O)OC(C)C)Oc2ccccc2)[C@@H](O)[C@@]1(C)F
reported-property: Tmax
endpoint-unit: min
recorded-result: 30

====

- test: Pharmacokinetic study in SAD cohorts
- Type: in vivo, human
- condition-info: both sexes, human, plasma and urine, po, 1500 mg, single oral Compound 2 1500 mg, fasting
reported-property: CL renal

compound: CNc1nc(N)nc2c1ncn2[C@@H]1O[C@H](CO[P@](=O)(N[C@@H](C)C(=O)OC(C)C)Oc2ccccc2)[C@@H](O)[C@@]1(C)F [Compound 1]
recorded-result: 138 mL/min

====

- test: Pharmacokinetic study in SAD cohorts
- Assay type: in vivo, human
- condition-info: both sexes, human, plasma, po, 1000 mg, human plasma, single oral Compound 2 1000 mg, South/Southeast/East Asian origin

compound: CNc1nc(N)nc2c1ncn2[C@@H]1O[C@H](CO[P@](=O)(N[C@@H](C)C(=O)OC(C)C)Oc2ccccc2)[C@@H](O)[C@@]1(C)F
half-life [min]: 30

====

- test: Pharmacokinetic study in SAD cohorts
- Format: in vivo, human
- condition-info: both sexes, human, plasma, po, 1000 mg, human plasma, single oral Compound 2 1000 mg, South/Southeast/East Asian origin; read-out: Tmax

compound: CNc1nc(N)nc2c1ncn2[C@@H]1O[C@H](CO[P@](=O)(N[C@@H](C)C(=O)OC(C)C)Oc2ccccc2)[C@@H](O)[C@@]1(C)F [Compound 1]
endpoint-unit: min
Tmax: 30

====

- test: Pharmacokinetic study in SAD cohorts
- Format: in vivo, human
- condition-info: both sexes, human, plasma, po, 250 mg, human plasma, single oral Compound 2 250 mg, fasting

compound: CNc1nc(N)nc2c1ncn2[C@@H]1O[C@H](CO[P@](=O)(N[C@@H](C)C(=O)OC(C)C)Oc2ccccc2)[C@@H](O)[C@@]1(C)F
half-life, min: 30

====

- test: Pharmacokinetic study in SAD cohorts
- Type: in vivo, human
- condition-info: both sexes, human, plasma, po, 500 mg, human plasma, single oral Compound 2 500 mg, fasting; read-out: Cmax

compound: CNc1nc(N)nc2c1ncn2[C@@H]1O[C@H](CO[P@](=O)(N[C@@H](C)C(=O)OC(C)C)Oc2ccccc2)[C@@H](O)[C@@]1(C)F [Compound 1]
Cmax: 1230 ng/mL
